molecular target: Estrogen receptor (Bos taurus) (UniProt Q9XSB5+P49884); test: Relative binding affinity (RBA) for calf uterine estrogen receptor; format: protein assay
Property Name: relative binding affinity (RBA)

Solved cases (10 shown):
| Compound | relative binding affinity (RBA) |
| --- | --- |
| CC(C)(C)[C@H](c1cccc(O)c1)[C@H](c1cccc(O)c1)C(C)(C)C | 0.7 |
| CC(C)(C)[C@H](c1ccc(O)cc1)[C@H](c1ccc(O)cc1)C(C)(C)C | 1.5 |
| CCC[C@H](c1cccc(O)c1)[C@@H](CCC)c1cccc(O)c1 | 4 |
| CC(C)[C@@H](c1ccc(O)cc1)[C@@H](c1ccc(O)cc1)C(C)C | 30 |
| CC(C)[C@@H](c1cccc(O)c1)[C@@H](c1cccc(O)c1)C(C)C | 15 |
| CC[C@H](c1cccc(O)c1)[C@@H](CC)c1cccc(O)c1 | 11 |
| CCC(C)[C@@H](c1cccc(O)c1)[C@@H](c1cccc(O)c1)C(C)CC (some centres not stated) | 3 |
| CCC(C)[C@@H](c1ccc(O)cc1)[C@@H](c1ccc(O)cc1)C(C)CC (some centres not stated) | 5 |
| CC[C@H](c1ccc(O)cc1)[C@@H](CC)c1ccc(O)cc1 | 25 |
| CC(C)C[C@H](c1ccc(O)cc1)[C@@H](CC(C)C)c1ccc(O)cc1 | 1.5 |

A = CC(C)CC(c1cccc(O)c1)[C@H](CC(C)C)c1cccc(O)c1 (single isomer, unassigned)
B = CCC[C@H](c1ccc(O)cc1)[C@@H](CCC)c1ccc(O)cc1
Task: Please choose the item with the lower relative binding affinity (RBA) value from this pair: A and B I would appreciate it if you answered with the label of your choice.
Result: A
(A: 0.5, B: 8)
